Origin of values: PubChem BioAssay

target: Voltage-gated potassium channel subunit beta-2 (Rattus norvegicus) (UniProt P62483); test: enhancers of rat Kvbeta2 NADPH turnover – biochemical, NADPH fluorescence, primary screen (AID 623); conditions: Recombinant KvBeta, NADPH fluorescence decrease slope, 10 min; at 10 µM; stronger effect = lower value;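 note: fluorescence intensity change per second fitted from 20 to 320 s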
Sequence (P62483 whole entry, looked up): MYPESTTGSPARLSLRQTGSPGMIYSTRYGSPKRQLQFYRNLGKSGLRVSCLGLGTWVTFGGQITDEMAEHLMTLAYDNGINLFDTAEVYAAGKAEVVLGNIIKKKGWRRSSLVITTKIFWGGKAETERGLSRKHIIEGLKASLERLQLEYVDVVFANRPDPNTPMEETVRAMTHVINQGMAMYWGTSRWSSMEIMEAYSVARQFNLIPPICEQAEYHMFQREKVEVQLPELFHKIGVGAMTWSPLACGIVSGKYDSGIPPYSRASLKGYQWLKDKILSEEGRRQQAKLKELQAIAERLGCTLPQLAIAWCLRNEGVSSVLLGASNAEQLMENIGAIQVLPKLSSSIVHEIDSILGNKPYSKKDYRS
assay_readout: NADPH fluorescence slope
# output: bare number, no unit

Query: Give its NADPH fluorescence slope value. Item: "COc1ccccc1-c1noc(-c2cccnc2)n1"
Response: -7.6e-05

Query: Data request, read-out NADPH fluorescence slope, for "COc1ccc2c(=O)c3c(=O)n(Cc4ccco4)c(C(C)C)nc3oc2c1"
Response: -2.1e-05

Query: // NADPH fluorescence slope lookup, key: "COC(=O)CCN1CCC(C(N)=O)CC1"
Response: 6.8e-05

Query: Would you kindly share the measured NADPH fluorescence slope for "COc1ccc(CCNC(=O)C2CCN(Cc3nc(-c4cccc(Cl)c4)oc3C)CC2)cc1OC" ?
Response: -1.7e-05

Query: I have this compound here, CCOC(=O)c1sc(C)c2c1NC(C)(c1cccs1)NC2=O (stereo unspecified) , and I need its recorded NADPH fluorescence slope.
Response: 1.8e-05

Query: Looking for the measured NADPH fluorescence slope of "O=C(Cn1nc(-c2ccc(Cl)cc2)ccc1=O)NCCCN1CCN(Cc2ccccc2)CC1" , can you help?
Response: 3e-05

Query: Look at this compound and give its reported NADPH fluorescence slope. "Cn1c(=O)c2c(nc(NCCc3ccccc3)n2CC(=O)NCCc2ccccc2)n(C)c1=O"
Response: 2.8e-06

Query: # input compound: "Cn1c(=O)c2c(nc(SCC(=O)NCc3ccc4c(c3)OCO4)n2Cc2ccccc2)n(C)c1=O" ; wanted: its NADPH fluorescence slope
Response: -3.8e-05

Query: I would be grateful if you could share the reported NADPH fluorescence slope for CN(C)CCC(c1ccc(Br)cc1)c1ccccn1 (stereo unspecified) .
Response: -6.3e-05

Query: // query NADPH fluorescence slope value for entry "O=C(COn1nnc2ccc(C(F)(F)F)cc21)Nc1nnc(-c2ccccc2)o1"
Response: -0.000163

Query: // query NADPH fluorescence slope value for entry "CCN(CCNC(=O)C1CCN(S(=O)(=O)CC)CC1)c1ccccc1"
Response: -2.8e-05
